Exercise: state measured CC50 for each of the compounds provided.
procedure-details: Cytotoxicity against BHK cells assessed as cell viability after 48 to 96 hrs by MTT assay
Assay type: cell-based, Mesocricetus auratus
measurement-conditions: hamster

Asked: Look up CC50: COc1ccc(Cn2nnc3cc(Cl)c(Cl)cc32)cc1
Given back: > 100 µM

Asked: Would you kindly repeat that for CC(C)(CCCOc1ccc(-n2nc3ccccc3n2)cc1)C(=O)O ?
Given back: 31 µM

Asked: Next record, please: CN1CCN(CCn2nnc3ccccc32)CC1
Given back: > 100 µM

Asked: Next up: CN(C)C(=O)Cn1nc2ccccc2n1
Given back: > 100 µM

Asked: Also need CC(C)(Oc1ccc(-n2nc3ccccc3n2)cc1)C(=O)O , thanks.
Given back: > 100 µM

Asked: Note, next up: CC(C)(COc1ccc(-n2nc3ccccc3n2)cc1)C(=O)O
Given back: > 100 µM

Asked: Again, but for COc1ccccc1N1CCN(CCCOc2ccc(-n3nc4ccc(C(F)(F)F)cc4n3)cc2)CC1
Given back: > 100 µM

Asked: Now consider COc1cc(C(=O)OCCn2nc3ccccc3n2)cc(OC)c1OC and answer again.
Given back: 26 µM

Asked: Same again, this time with Oc1ccc(-n2nc3ccc(C(F)(F)F)cc3n2)cc1
Given back: 65 µM

Asked: And for O=C(O)COc1ccc(-n2nc3ccccc3[n+]2[O-])cc1 ?
Given back: > 100 µM

Asked: Would you kindly repeat that for Cc1ccc(C)c(OCCCC(C)(C)C(=O)O)c1 ?
Given back: > 100 µM

Asked: COc1cc(/C=C/C(=O)OCCn2nnc3ccccc32)cc(OC)c1OC , same question.
Given back: > 100 µM

###

procedure-details: Cytotoxicity against human MT4 cells assessed as cell viability after 96 hrs by MTT assay
Format: cell-based
Kindly supply the reported CC50 at 96 h values for the records listed here.

Asked: Could you tell me which CC50 at 96 h is on file for COc1cc(C(=O)OCCn2nc3ccccc3n2)cc(OC)c1OC ?
Given back: 0.3 µM

Asked: Further, for Cc1ccc(C)c(OCCCC(C)(C)C(=O)O)c1 [GEMFIBROZIL] ?
Given back: > 100 µM

Asked: Next record, please: COc1ccc(Cn2nc3cc(Cl)c(Cl)cc3n2)cc1
Given back: > 100 µM

Asked: Next: C[C@@H](Oc1ccc(-n2nc3ccccc3n2)cc1)C(=O)O
Given back: > 100 µM

Asked: Query CC(C)(Oc1ccc(-n2nc3ccc(Cl)cc3n2)cc1)C(=O)O next
Given back: > 100 µM

Asked: // repeat for Oc1ccc(-n2nc3ccccc3n2)cc1 and report
Given back: > 100 µM

Asked: // query: Clc1ccc(Cn2nc3cc(Cl)c(Cl)cc3n2)cc1
Given back: > 100 µM

Asked: And the next one, Cc1cc2nnn(C3CCCO3)c2cc1C (stereo not given) ?
Given back: > 100 µM

Asked: Note, next up: CN(C)C(=O)Cn1nc2ccccc2n1
Given back: > 100 µM

Asked: Repeat for the following compound: COc1cc(/C=C/C(=O)OCCCn2nnc3ccccc32)cc(OC)c1OC
Given back: > 100 µM

Asked: And for O=C(Cn1nc2ccccc2n1)N1CCOCC1 ?
Given back: > 100 µM

Asked: Field entry: COc1cc(C(=O)OCCn2nnc3ccccc32)cc(OC)c1OC
Given back: 1.9 µM

Asked: Entry C[C@H](Oc1ccc(-n2nc3ccccc3n2)cc1)C(=O)O please
Given back: > 100 µM

Asked: Would you mind doing FC(F)(F)c1ccc2nn(Cc3ccc(Cl)cc3)nc2c1 as well?
Given back: > 100 µM

Asked: Next: Nc1nc2c(ncn2COCCO)c(=O)[nH]1 [ACYCLOVIR]
Given back: > 100 µM

Asked: Also, COc1ccc(Cn2nnc3cc(Cl)c(Cl)cc32)cc1 please.
Given back: > 100 µM

Asked: Please answer likewise for Clc1c(Cl)c(Cl)c2c(nnn2C2CCCO2)c1Cl (stereo not given)
Given back: 95 µM

Asked: Further, for Clc1cc2nnn(C3CCCCO3)c2cc1Cl (stereo not given) ?
Given back: > 100 µM

Asked: Also Cc1ccc2nn(-c3ccc(OCCCC(C)(C)C(=O)O)cc3)nc2c1 , if possible.
Given back: 53 µM

Asked: Okay, and [O-][n+]1c2ccccc2nn1-c1ccc(O)cc1 ?
Given back: > 100 µM

Asked: For Cc1cc(-n2nc3ccccc3n2)cc(C)c1OC(C)(C)C(=O)O then?
Given back: > 100 µM

Asked: Thanks! And COc1ccc2nn(-c3ccc(OC(C)(C)C(=O)O)cc3)nc2c1 ?
Given back: > 100 µM

Asked: Now give it for Cc1ccc2nn(-c3ccc(OCC(C)(C)C(=O)O)cc3)nc2c1 too.
Given back: ≥ 100 µM

Asked: Another compound to check: CC(C)(COc1ccc(-n2nc3ccccc3n2)cc1)C(=O)O
Given back: > 100 µM

Asked: NNC(=O)Cn1nnc2ccccc21 ?
Given back: > 100 µM
